Assay: Oral bioavailability (dose in 5% dextrose in water at pH 2)
Assay type: ADME, organism-based
Settings: rat, in vivo
measurement label: bioavailability (%)
Give bare numbers, in %.

Worked examples, 4 compounds total:
O=C(O)CC(NC(=O)C1CCN(C(=O)CCc2ccc3c(n2)NCCC3)CC1)c1ccc2c(c1)OCO2 (stereo not given) | 2.4
O=C(O)CC(CC1CCN(C(=O)CCc2ccc3c(n2)NCCC3)CC1)c1cccnc1 (stereo not given) | 0
O=C(O)CC(CCC1CCN(C(=O)CCCNc2ccccn2)CC1)c1ccc2c(c1)OCO2 (stereo not given) | 96
O=C(O)CC(CCC1CCN(C(=O)CCc2ccc3c(n2)NCCC3)CC1)c1ccc2c(c1)OCO2 (stereo not given) | 88

// moving on: another record for bioavailability
Recorded bioavailability of O=C(O)CC(CC1CCN(C(=O)CCc2ccc3c(n2)NCCC3)CC1)c1cccc(F)c1 (stereo not given) , please.
14
